# pIC50 annotations
# target: Human Secreted Phospholipase A2 (Homo sapiens, UniProt P14555)
# Sequence (P14555 21-144): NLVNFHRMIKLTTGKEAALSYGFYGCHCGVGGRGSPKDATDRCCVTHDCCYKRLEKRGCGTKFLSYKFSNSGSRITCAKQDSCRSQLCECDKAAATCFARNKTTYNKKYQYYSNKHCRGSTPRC
# assay.remarks: chromogenic assay for inhibitors of recombinant human secreted phospholipase A2
# Type: biochemical
In simple prose, pIC50 is minus the logarithm base ten of a concentration in moles per litre.

Worked set:
1. NC(=O)C(=O)c1c(C2CC2)n(Cc2ccccc2)c2cccc(OCC(=O)O)c12
7.56
2. Cc1c(C(=O)C(N)=O)c2c(OCC(=O)O)cccc2n1Cc1ccccc1-c1ccccc1
8.27

Problem: Give pIC50 (Human Secreted Phospholipase A2 (Homo sapiens, UniProt P14555)) of the following compound: `Cc1c(C(=O)C(N)=O)c2c(OCC(=O)O)cccc2n1Cc1ccc(-c2ccccc2)cc1`
Result: 7.31

Problem: Query the reported pIC50 for Human Secreted Phospholipase A2 (Homo sapiens, UniProt P14555); item: `NC(=O)C(=O)c1c(C2CC2)n(Cc2ccccc2-c2ccccc2)c2cccc(OCC(=O)O)c12`
Result: 8.25

Problem: API: value(readout=pIC50, system=Human Secreted Phospholipase A2 (Homo sapiens, UniProt P14555)) for record `CCc1c(C(=O)C(N)=O)c2c(OCC(=O)O)cccc2n1Cc1ccccc1-c1ccccc1`
Result: 8.36

* * *

# target: Human Secreted Phospholipase A2 (Homo sapiens)
# Sequence (P14555 21-144): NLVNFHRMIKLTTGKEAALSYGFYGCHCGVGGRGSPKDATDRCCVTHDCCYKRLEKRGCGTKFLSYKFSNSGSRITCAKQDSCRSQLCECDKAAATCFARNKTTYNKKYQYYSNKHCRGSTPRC
# assay.remarks: chromogenic assay for inhibitors of recombinant human secreted phospholipase A2
# Format: biochemical
# setup.conditions: diheptanoyl thio-PC substrate, pH 7.5, 40° C. for 30 minutes, absorbance at 405 nanometers; read-out: Inhibition of human secreted PLA2 IC50 ± mean deviation (3-4 tests)
pIC50: −log10 of the molar value.
Decide using pIC50: a value greater than or equal to 7 is 1 (yes), a smaller one is 0 (no).

Problem: Has Cc1c(C(=O)C(N)=O)c2c(OC(C)C(=O)O)cccc2n1Cc1ccccc1 (racemic) [Example 2] a recorded pIC50 greater than or equal to 7?
Result: 1 (yes)

Problem: Has CCc1c(C(=O)C(N)=O)c2c(NCC(=O)O)cccc2n1Cc1ccccc1 [Example 17] a recorded pIC50 greater than or equal to 7?
Result: 0 (no)

Problem: Reported pIC50 reaches at least 7 for Cc1c(C(=O)C(N)=O)c2c(OCC(=O)O)cccc2n1Cc1c(Cl)cccc1Cl [Example 6] ?
Result: 1 (yes)

Problem: # check: pIC50 of NC(=O)C(=O)c1cn(Cc2ccccc2)c2ccc(OCCCC(=O)O)cc12 [Example 16] is greater than or equal to 7
Result: 0 (no)

Problem: Check the entry CCc1c(C(=O)C(N)=O)c2cc(OCCCC(=O)O)ccc2n1Cc1ccccc1 [Example 15] : does pIC50 equal or exceed 7?
Result: 0 (no)

* * *

Entries and their measured Kb follow.
# target: Human Secreted Phospholipase A2 (Homo sapiens, UniProt P14555)
# assay.remarks: guinea pig lung pleural strip tissue test, sPLA2-induced contraction
# Type: cell-based
# setup.conditions: guinea pig lung pleural strips; compound added 30 min. prior to sPLA2 concentration-response curves; pA2 interpreted as apparent KB; read-out: Tissue test secreted PLA2 Apparent KB
# Description: Male Hartley strain guinea pigs (500-700 g) were killed by cervical dislocation and their heart and lungs removed intact and placed in aerated (95% O2:5% CO2) Krebs buffer. […] Initially tissues were challenged 3 times with KCl (40 mM) to test tissue viability and to obtain a consistent response. […] To minimize variability between tissues obtained from different animals, contractile responses were expressed as a percentage of the maximal response obtained with the final KCl challenge. […]
Structures can show the parent of a compound that is named as a salt.
Reply numerically in nM, unit not repeated.

1. Cc1c(C(=O)C(N)=O)c2c(OCC(=O)O)cccc2n1Cc1ccccc1-c1ccccc1 [3 (Na salt), sodium salt]
67.6

Problem: Using the record for `Cc1c(C(=O)C(N)=O)c2c(OCC(=O)O)cccc2n1Cc1ccccc1` , report its Kb.
Result: 143

Problem: Query: Kb; subject: CCc1c(C(=O)C(N)=O)c2c(OCC(=O)O)cccc2n1Cc1cccc(Cl)c1 [10 (Na salt), sodium salt]
Result: 110

Problem: What does the data say about its Kb? Entry: `CCc1c(C(=O)C(N)=O)c2c(OCC(=O)O)cccc2n1Cc1ccccc1-c1ccccc1`
Result: 57

Problem: Consider the compound `NC(=O)C(=O)c1c(C2CC2)n(Cc2ccccc2-c2ccccc2)c2cccc(OCC(=O)O)c12` and give its measured Kb.
Result: 75

Data credit: patent US6433001B1
